# Lookup of reported Bmax keyed by entry
Molecular target: T1, Recombinant human leptin binding domain (hLBD) (human, UniProt P48357 428-635, biotinylated with Sulfo-NHS-LC-Biotin in the yeast display assays; not labelled when immobilized in the plate binding assay)
T1 construct: CRH2 sub-domain of the leptin receptor; Prepared in the applicants' laboratory; also called soluble human leptin receptor; CHR2
T1 sequence (looked up): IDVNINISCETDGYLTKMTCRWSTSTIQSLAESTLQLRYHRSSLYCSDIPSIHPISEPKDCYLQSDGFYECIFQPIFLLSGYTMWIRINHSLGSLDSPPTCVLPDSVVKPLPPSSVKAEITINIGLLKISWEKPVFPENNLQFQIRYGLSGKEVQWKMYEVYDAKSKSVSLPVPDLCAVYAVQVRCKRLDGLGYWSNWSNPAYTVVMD
Assay: yeast display, flow cytometry titration with biotinylated hLBD (FIG. 4B)
Express it in MFI; write the number only.

Worked set:
binder="yeast-displayed mouse leptin clone H30 (D23H) (ligand, UniProt P41160 22-167, looked up, not shown: large carriers; small tags and cut ends, mature) VPIQKVQDDTKTLIKTIVTRINHISHTQSVSAKQRVTGLDFIPGLHPILSLSKMDQTLAVYQQVLTSLPSQNVLQIANDLENLRDLLHLLAFSKSCSLPQTSGLQKPESLDGVLEASLYSTEVVALSRLQGSLQDILQQLDVSPEC" value_reported=741
binder="yeast-displayed mouse leptin clone H19 (D23G, T37A, G44D) (ligand, UniProt P41160 22-167, looked up, not shown: large carriers; small tags and cut ends, mature) VPIQKVQDDTKTLIKTIVTRINGISHTQSVSAKQRVAGLDFIPDLHPILSLSKMDQTLAVYQQVLTSLPSQNVLQIANDLENLRDLLHLLAFSKSCSLPQTSGLQKPESLDGVLEASLYSTEVVALSRLQGSLQDILQQLDVSPEC" value_reported=966

// moving on: another record for Bmax
Exercise: Reported Bmax for yeast-displayed mouse leptin clone H7 (K11R, Q34R, T37A, F92C, S97Y, I136V) (ligand, UniProt P41160 22-167, looked up, not shown: large carriers; small tags and cut ends, mature; also called H18; H27) VPIQKVQDDTRTLIKTIVTRINDISHTQSVSAKRRVAGLDFIPGLHPILSLSKMDQTLAVYQQVLTSLPSQNVLQIANDLENLRDLLHLLACSKSCYLPQTSGLQKPESLDGVLEASLYSTEVVALSRLQGSLQDVLQQLDVSPEC : what is it?
Key: 1140
